The values you see were collected from patent US8592464B2.

METRIC NAME: melting point

Here's what some known entries look like.
COc1ccc(C(=O)OCc2no[n+]([O-])c2C(N)=O)cc1 (hydrate or solvate) :: 175 to 176 °C
NC(=O)c1c(COC(=O)c2cccc(O)c2)no[n+]1[O-] (hydrate or solvate) :: 203 to 204 °C
NC(=O)c1c(COC(=O)c2ccc(N)cc2)no[n+]1[O-] (hydrate or solvate) :: 206 to 208 °C
NC(=O)c1c(COC(=O)c2ccc(F)cc2)no[n+]1[O-] (hydrate or solvate) :: 163 to 164 °C
N#Cc1ccc(C(=O)OCc2no[n+]([O-])c2C(N)=O)cc1 :: 190 to 191 °C

The record that follows has no melting point shown yet.
Form field: reported melting point of NC(=O)c1c(COC(=O)c2ccccc2)no[n+]1[O-] (hydrate or solvate) 163 to 165 °C
